Where these numbers come from: paper PMC5540273

Test system: IKK-alpha
Construct: gene CHUK
Conditions: concentration: 1 μM, replicates: in singlicate; n = 1;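 also: KINOMEscan kinase panel screen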
# binarize %Inh: threshold 30% inclusive, high side T, low side F

Ask | Is %Inh at least 30%? Consider Cn1cc(-c2ccc3c(c2)CCN3C(=O)Cc2cccc(Cl)c2)c2c(N)ncnc21 [GSK2606590]
Reply | F

Ask | Would you say "COc1cc2c(cc1OCCN1CCNCC1)ncc1c3ccc(C#N)cc3[nH]c21" shows %Inh at minimum 30%?
Reply | T

Ask | Tell me whether %Inh is at least 30% here: NCCCC(NC(=O)c1cc(Br)c(-c2ccnc3[nH]ccc23)s1)c1ccccc1.O=C(O)C(F)(F)F.O=C(O)C(F)(F)F (centres unmarked) [GSK1287544]
Reply | T

Ask | Check if %Inh >= 30% (inclusive). Item: COc1ccc(Nc2nccc(N3CCC(NC(=O)Nc4cccc(OC)c4)C3)n2)cc1 (centres unmarked) [GSK1379742]
Reply | F

Ask | Hello, I need to know if Oc1cc(Nc2ccnc3cc(I)ccc23)ccc1F [GW552771] has measured %Inh not below 30%. Thanks!
Reply | T

Ask | Would you say CC(C)c1nc(-c2cccc(NS(=O)(=O)c3c(F)cccc3F)c2F)c(-c2ccnc(Nc3ccc(N4CCOCC4)nc3)n2)s1 [GSK2008607] shows %Inh at minimum 30%?
Reply | F

Ask | Exam item: decide whether the reported %Inh for c1ccc(Oc2ccc(Nc3ccnc4cc(-c5ccc(CNCCN6CCOCC6)o5)ccc34)cc2)nc1 [GW567145] is at least 30%.
Reply | F

* * *

System: CHEK1
Settings: concentration: 1 μM, replicates: in singlicate; n = 1
metric.name: %Inh (%)
Field: numeric (%). Do not append units.

Ask | Quick one: %Inh for O=C(Nc1ccccc1F)NC1CCN(c2ccnc(Nc3ccc(F)cc3)n2)CC1 [GSK1379800] ?
Reply | 0

Ask | Form field: reported %Inh of CC(C)c1nc(-c2cccc(NS(=O)(=O)c3c(F)cccc3F)c2F)c(-c2ccnc(Nc3ccc(N4CCOCC4)nc3)n2)s1 [GSK2008607]
Reply | 0

Ask | Given the molecule COc1cccc(-c2ccc3c(NC(=O)C4CC4)n[nH]c3n2)c1 [SB-710903] , what is its reported %Inh?
Reply | 0

* * *

System: ULK3
Conditions: concentration: 1 μM, replicates: in singlicate; n = 1
Provide the reported %Inh of each item.
Answer by giving the amount and then stating its unit.

Ask | ULK3 / %Inh / "CCS(=O)(=O)c1ccc(OC)c(Nc2nccc(-c3c(-c4cccc(NC(=O)c5c(F)cccc5F)c4)nn4ncccc34)n2)c1" : value?
Reply | 25%

Ask | API: value(readout= %Inh, system= ULK3, query= "O=C(Nc1n[nH]c2cc(-c3ccoc3)ccc12)C1CC1" )
Reply | 10%

Ask | Could you share what %Inh was measured for "Cl.c1ccc(-c2ccc3c(Nc4ccc5[nH]ncc5c4)ccnc3c2)nc1" , tested on ULK3?
Reply | 11%

Ask | Enter reported %Inh observed with ULK3 for "Nc1n[nH]c2cnc(-c3ccccc3)cc12"
Reply | 35%

Ask | Param readout= %Inh; system= ULK3; entry= COc1cc(Nc2nccc(N3CCC(NC(=O)c4cc5ccccc5s4)C3)n2)cc(OC)c1OC (centres unmarked) ; returns value.
Reply | 64%

Ask | # value lookup — system ULK3, readout %Inh, item "COc1cc(Nc2nccc(-c3c(-c4cccc(NC(=O)c5c(F)cccc5F)c4)nn4ncccc34)n2)cc(OC)c1OC"
Reply | 30%

Ask | Lab note: need %Inh for "O=C(Nc1cccc(-c2nn3ncccc3c2-c2ccnc(Nc3ccccc3)n2)c1)c1c(F)cccc1F" on ULK3, anyone have it?
Reply | 6%

Ask | Please provide the recorded %Inh for "Cc1ccc(C(=O)N2CC[C@@H](O)C2)cc1-n1c(C)cc(OCc2ccc(F)cc2F)c(Br)c1=O" , tested on ULK3.
Reply | 0%

* * *

Test system: RAF1
Conditions: concentration: 1 μM, replicates: in singlicate; n = 1
metric.name: %Inh (%)
Write the value in % as a bare number.

Ask | Fill in the blank: the reported %Inh of "CCn1c(-c2nonc2N)nc2c(C#CC(C)(C)O)nc(OC[C@H](N)c3ccccc3)cc21" is ____.
Reply | 11

Ask | Quick check: %Inh of Cl.Cl.NCC(NC(=O)c1cc(-c2ccccc2)c(-c2ccnc3[nH]ccc23)s1)c1ccccc1 (stereo not shown) ?
Reply | 18

Ask | Reported %Inh for "CN(C)S(=O)(=O)c1cc(-c2ccc3nccc(-c4cccc(S(N)(=O)=O)c4)c3c2)cnc1N" : what is it?
Reply | 9

Ask | Name the recorded %Inh for "Cl.c1ccc(-c2ccc3c(Nc4ccc5[nH]ccc5c4)ccnc3c2)nc1" .
Reply | 40

Ask | Name the reported %Inh value associated with the compound "Cl.NC(=O)c1cccc(Nc2nccc(Nc3ccc(Oc4c(Cl)cccc4Cl)c(Cl)c3)n2)c1"
Reply | 88

Ask | Query (compound): "CC(C)c1nc(-c2cccc(NS(=O)(=O)c3c(F)cccc3F)c2F)c(-c2ccnc(Nc3ccc(N4CCOCC4)nc3)n2)s1" ; field requested: %Inh
Reply | 100

Ask | Reported %Inh for "Cn1cc(-c2[nH]c3cc(NC(=O)[C@H](N)C4CCCCC4)cc4c3c2C=NNC4=O)cn1" : what is it?
Reply | 0

Ask | What value of %Inh has been reported for the following compound? "Cc1cccc(NC(=O)Nc2ccc(Oc3ncnc4ccn(C)c34)cc2)c1"
Reply | 0

Ask | What does the record list as %Inh for "COc1cc(Nc2nccc(-c3c(-c4cccc(NC(=O)c5c(F)cccc5F)c4)nn4ncccc34)n2)cc(OC)c1OC" ?
Reply | 97.2

Ask | Which measured %Inh value corresponds to COc1ccc(Nc2nccc(N3CCC(NC(=O)Nc4cccc(OC)c4)C3)n2)cc1 (stereo not shown) ?
Reply | 3

Ask | Reported %Inh for "O=C(Nc1n[nH]c2nc(-c3ccc(O)cc3)ccc12)C1CC1" : what is it?
Reply | 13

Ask | Which %Inh value belongs to "c1ccc(Oc2ccc(Nc3ccnc4cc(-c5ccc(CNCCN6CCOCC6)o5)ccc34)cc2)nc1" ?
Reply | 2

Ask | For the compound shown here, "COC(=O)Nc1nc2cc(Oc3ccc(NC(=O)Nc4cc(C(F)(F)F)ccc4F)cn3)ccc2[nH]1.Cl.Cl" , give the reported %Inh.
Reply | 90.3

Ask | Reported %Inh, compound "Oc1cc(Nc2ccnc3cc(I)ccc23)ccc1F" : ____
Reply | 49

Ask | // %Inh lookup, key: "Cn1cc(-c2ccc3c(c2)CCN3C(=O)Cc2cccc(Cl)c2)c2c(N)ncnc21"
Reply | 1

Ask | Report %Inh for "COC(=O)Nc1nc2ccc(Oc3ccc(NC(=O)Nc4cc(C(F)(F)F)ccc4F)cc3)cc2n1C.Cl" please.
Reply | 85

* * *

System: DCAMKL1
Construct: gene DCLK1
Conditions: concentration: 1 μM, replicates: in singlicate; n = 1
Category scheme (%Inh): small value (below 8%), mid value (8% to below 30%), large value (30% or more)

Ask | Please classify: Cn1cc(-c2ccc3c(c2)CCN3C(=O)Cc2cccc(Cl)c2)c2c(N)ncnc21 [GSK2606590]
Reply | mid value

Ask | Kindly state the category for this compound: CNC(=O)c1ccccc1Nc1nc(Nc2ccc(N3CCOCC3)cc2)ncc1Cl.Cl [GSK1576028]
Reply | large value

Ask | Each compound maps to one class by %Inh. Which class for COc1cccc(-c2ccc3c(NC(=O)C4CC4)n[nH]c3n2)c1 [SB-710903] ?
Reply | mid value

Ask | The entry to classify is CC(=O)N1CCN(c2ccc(Nc3nccc(-c4sc(C(C)C)nc4-c4cccc(NS(=O)(=O)c5cccc(Cl)c5)c4)n3)cn2)CC1 [GSK1660437] ; which class holds it?
Reply | mid value

Ask | Hi there! Could you help me figure out the category for "O=C(Nc1cccc(Oc2ccc3nc(NC(=O)C4CC4)cn3n2)c1)c1ccccc1C(F)(F)F" please?
Reply | large value

Ask | // return the class label for "Cc1ccc(C(=O)N2CC[C@@H](O)C2)cc1-n1c(C)cc(OCc2ccc(F)cc2F)c(Br)c1=O"
Reply | large value

Ask | Could you place COc1ccc(Nc2nccc(N3CCC(NC(=O)Nc4cccc(OC)c4)C3)n2)cc1 (stereo not shown) [GSK1379742] in its proper category? Many thanks.
Reply | small value

Ask | Form: Item = "COc1cc2c(cc1OCCN1CCNCC1)ncc1c3ccc(C#N)cc3[nH]c21" ; Class = ?
Reply | large value

Ask | Classify this compound: Nc1ncnc2c1nc(-c1ccccc1)n2-c1ccccc1 [SKF-97293]
Reply | small value

Ask | Would you mind sorting CCn1c(-c2nonc2N)nc2c(C#CC(C)(C)O)ncc(OCCCCN)c21.O=C(O)C(F)(F)F.O=C(O)C(F)(F)F [GSK507274] into the appropriate category?
Reply | large value

Ask | Which class is correct for the following compound? CN(c1ccc(NC(=O)Nc2cc(C(F)(F)F)ccc2F)cc1)c1ccnc(Nc2ccc(S(N)(=O)=O)cc2)n1 [GW809893]
Reply | small value

Ask | Bin? COC(=O)Nc1nc2ccc(Oc3ccc(NC(=O)Nc4cc(C(F)(F)F)ccc4F)cc3)cc2n1C.Cl [GW692089]
Reply | small value

Ask | Please let me know in which category the item CCn1c(-c2nonc2N)nc2c(C#CC(C)(C)O)nc(OC[C@H](N)c3ccccc3)cc21 [GSK943949] belongs.
Reply | mid value

Ask | Returns: class label. Input: CCS(=O)(=O)c1ccc(OC)c(Nc2nccc(-c3c(-c4cccc(NC(=O)c5c(F)cccc5F)c4)nn4ncccc34)n2)c1 [GSK326180]
Reply | small value

Ask | For CN(C)S(=O)(=O)c1cc(-c2ccc3nccc(-c4cccc(S(N)(=O)=O)c4)c3c2)cnc1N [GSK1669921] , which %Inh bin applies?
Reply | mid value
